Source: patent US8242159B2

tested on: Male Wistar rats; test: p-PCA-induced ejaculation in anesthetized rats (ejaculation-delaying effect); type: in vivo, rat; details: 50 mg/kg oral; p-PCA 5 mg/kg i.p.; mean ± standard deviation of responding rats
Property: Latency: Time to display the ejaculatory response; scope: individual molecules
MEASUREMENT NAME: Latency: Time to display the ejaculatory response (s)

MOLECULE	RECORDED RESULT
CN(C)CCC1(c2cccs2)OCc2cc(C#N)ccc21.Cl (stereo not drawn)	888
Cl.N#Cc1ccc2c(c1)COC2(CCCn1ccnc1)c1ccc(Cl)cc1 (stereo not drawn)	888
CN(C)CCCC1(c2cccs2)OCc2cc(C#N)ccc21.O=C(O)C(=O)O (stereo not drawn)	876
